Give IC50 for every item shown.
System: 699152-130-R-J1-PDC complex spheroid growth;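 also: compound exposure lasted 7 days after spheroids had grown for 3 days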
assayMethodText: Anticancer human tumor 699152-130-R-J1-PDC patient-derived pancreatic carcinoma cell line growth inhibition [AhR]
experimentalContext: curve of first compound; second compound 10 µM

Request: Which IC50 value is on record for CC1COCCN1c1cc(C2(S(C)(=N)=O)CC2)nc(-c2ccnc3[nH]ccc23)n1 (configuration not stated) + CC(CO)NC(=O)c1cc(-c2ccc(Cl)cc2)nn(-c2cnn(C)c2)c1=O ?
Result: > 10000 nM

Request: Try this compound next: CC1COCCN1c1cc(C2(S(C)(=N)=O)CC2)nc(-c2ccnc3[nH]ccc23)n1 (configuration not stated) + Cc1ccccc1N=Nc1ccc(NC(=O)c2ccnn2C)c(C)c1
Result: > 10000 nM

Request: What about this compound? O=C(C=Cn1cnc(-c2cc(C(F)(F)F)cc(C(F)(F)F)c2)n1)NNc1cnccn1 + Cc1ccccc1N=Nc1ccc(NC(=O)c2ccnn2C)c(C)c1
Result: > 3000 nM

Request: And what about the compound CC(C)c1c(-c2ccccc2)nc2c(C#N)c[nH]n2c1=O + CC(CO)NC(=O)c1cc(-c2ccc(Cl)cc2)nn(-c2cnn(C)c2)c1=O ?
Result: > 10000 nM

Request: # iterate: CC[C@@]1(O)C(=O)OCc2c1cc1n(c2=O)Cc2cc3c(CN(C)C)c(O)ccc3nc2-1 + Cc1ccccc1N=Nc1ccc(NC(=O)c2ccnn2C)c(C)c1
Result: > 100 nM

Request: Another: COc1cccc2c1C(=O)c1c(O)c3c(c(O)c1C2=O)CC(O)(C(=O)CO)CC3OC1CC(N)C(O)C(C)O1 (configuration not stated) + Cc1cncc(-c2nc(NCCc3c[nH]c4ccccc34)c3ncn(C(C)C)c3n2)c1
Result: < 31.6 nM

Request: And for CC[C@@]1(O)C(=O)OCc2c1cc1n(c2=O)Cc2cc3c(CN(C)C)c(O)ccc3nc2-1 + Cc1cncc(-c2nc(NCCc3c[nH]c4ccccc34)c3ncn(C(C)C)c3n2)c1 ?
Result: < 0.316 nM

Request: For O=C(C=Cc1cccc(S(=O)(=O)Nc2ccccc2)c1)NO + Cc1cncc(-c2nc(NCCc3c[nH]c4ccccc34)c3ncn(C(C)C)c3n2)c1 then?
Result: < 31.6 nM

Request: Now try CC1(C)CCC(CN2CCN(c3ccc(C(=O)NS(=O)(=O)c4ccc(NCC5CCOCC5)c([N+](=O)[O-])c4)c(Oc4cnc5[nH]ccc5c4)c3)CC2)=C(c2ccc(Cl)cc2)C1 + Cc1ccccc1N=Nc1ccc(NC(=O)c2ccnn2C)c(C)c1 .
Result: > 10000 nM

Request: Now consider CC(C)c1c(-c2ccccc2)nc2c(C#N)c[nH]n2c1=O + Cc1cncc(-c2nc(NCCc3c[nH]c4ccccc34)c3ncn(C(C)C)c3n2)c1 .
Result: < 31.6 nM

Request: Now this one: CCc1c2c(nc3ccc(O)cc13)-c1cc3c(c(=O)n1C2)COC(=O)[C@]3(O)CC + Cc1cncc(-c2nc(NCCc3c[nH]c4ccccc34)c3ncn(C(C)C)c3n2)c1
Result: < 0.949 nM

Request: Param item: O=C(c1cc(Cc2n[nH]c(=O)c3ccccc23)ccc1F)N1CCN(C(=O)C2CC2)CC1 + Cc1cncc(-c2nc(NCCc3c[nH]c4ccccc34)c3ncn(C(C)C)c3n2)c1
Result: < 31.6 nM
